B1: tRNA (parent)
chain: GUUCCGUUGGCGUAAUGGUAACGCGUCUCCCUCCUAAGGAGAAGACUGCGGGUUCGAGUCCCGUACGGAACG

variants of: B1; assay: yeast fitness relative to wild type (ratio to wild type); higher = fitter; tRNA-Arg(CCU), competitive growth, 37 C, YPD
Variants at the floor of the assay were thinned out.
reported.metric: yeast fitness

[
  {
    "chain": "GUUCCGUUGGCGUAAUGGUAAGGCGACUCCCUCCUAAGGAGAAGACUGCGGGUUCGAGUCCCGUACGGAACG [C22G U26A]",
    "result": 1.08
  },
  {
    "chain": "GUUCCGUUGACGUAAUGGUAACGCGUCUCUCUCUUAAGGAGUAGACUGCGGGUUCGGGUCCCGUACGGAACG [G10A C30U C34U A42U A57G]",
    "result": "≤ 0.5"
  },
  {
    "chain": "GUUCCGUUGGCGUCAUGGUAACGCGUCUCCCUCCUAAGGAGAAGACUGCGGGUUCGAGUCCCGUCCGGAACG [A14C A65C]",
    "result": 0.635
  },
  {
    "chain": "GUUCCGUUGCCGUAAUGGUAACGCGUCUCCCUCCUAAGGAGAAGACUGCGGGUUCGAAUCCCGUAGGGAACG [G10C G58A C66G]",
    "result": "≤ 0.5"
  },
  {
    "chain": "GUUCCGUUGGCGUAAUAGUAACGCGUCUCCCUCCUAAGGAGAAGAUUGCGGGUUCGAGUCCCGUCCGGAACG [G17A C46U A65C]",
    "result": 0.658
  },
  {
    "chain": "GUUCGGUUGGCGUAAUUGUAACGCGUCUCCCUCCUAAGGAGAAGUCUGCGGGUUCGAGUCCCGUACGCAACG [C5G G17U A45U G68C]",
    "result": "≤ 0.5"
  },
  {
    "chain": "GUUUCGUUGGCGUAAUGGUAACGCGGCUCCCUCCUAAGGAGAAGACUGCGGGUUCGAGUCCGGUACGGAACG [C4U U26G C62G]",
    "result": "≤ 0.5"
  },
  {
    "chain": "GUUCCGUUGGCGUAAAGGUAACGCGUCUGCCUCCUAAGGAGAAGACUGCGGGUUCGAGUCCCGUACGGAACG [U16A C29G]",
    "result": 0.669
  },
  {
    "chain": "GUUCCGUUGGCGUAAUGGAAACGCGUAUCCCUCCUAAGGAGAAGAAUGCGGGUUCGAGUCCCGUACAGAACG [U19A C27A C46A G67A]",
    "result": "≤ 0.5"
  },
  {
    "chain": "GUUCCGUUGGCCUAAAGGUACCGCGUCUCCCUCCUAAGGAGAAGACUGCGGGUUCGAGUCCCGUACGGAACG [G12C U16A A21C]",
    "result": "≤ 0.5"
  },
  {
    "chain": "GUUCCGUUGGCGUAAUGGUAACGCGUCUCCCUCUUAACGAGAAGACUGCGGGUCCGAGUCCCGUACGGAACG [C34U G38C U54C]",
    "result": "≤ 0.5"
  },
  {
    "chain": "GUUCCGUUGCCGUAAUGGUAACGCGUCUCCCUCCUAAGGUGAAGACCGCGGGUUCGAGUCCCGUACGAAACG [G10C A40U U47C G68A]",
    "result": "≤ 0.5"
  },
  {
    "chain": "GUUCCGUUCGCGUAAUGGUAACGCGUCUCCCUCCUAAGGAGAAGAGUGCGGGUUCGAGUCCCGUACGGAACG [G9C C46G]",
    "result": 0.735
  },
  {
    "chain": "GUUCCGUUGGCGUUAUGGUAACGCGUCUCCCUCCUAUGGAGAAGACCGCGGGUUCGAGUCCCGUACGGAACG [A14U A37U U47C]",
    "result": "≤ 0.5"
  },
  {
    "chain": "GUUCCGUUGGCGUCAUGGUAACGCGUCUCCCUCCUAAGGAGAAGAGUGCGGGUUCGAGUCCUGUAUGGAACG [A14C C46G C62U C66U]",
    "result": "≤ 0.5"
  },
  {
    "chain": "GUUCCGUUGGUGUAAUGCUAACGCGUCUCCUUCCUAAGGAGAAGACUGCGGGUUCGAGUCCUGUACGGAACG [C11U G18C C31U C62U]",
    "result": "≤ 0.5"
  },
  {
    "chain": "GUUCCGUUGGCGAUAUGGUAAAGCGUCUCCCUCCUAAGGAGAAGACUCCGGGUUCGAGUCCCGUACGGAACG [U13A A14U C22A G48C]",
    "result": "≤ 0.5"
  },
  {
    "chain": "GUUUCGUUCGCGUAAUGGUAACGCGUCUGCCUCGUAAGGAGAAGACUGCGGGUUCGAGUGCCGUACGGAACG [C4U G9C C29G C34G C60G]",
    "result": "≤ 0.5"
  },
  {
    "chain": "GUUCCGUUGGGGUAAUGGUCACGCGUCUCCCUCCUAAGGAGAAGACUGAGGGUGCGAGUCCCGUACGGAACG [C11G A20C C49A U54G]",
    "result": "≤ 0.5"
  },
  {
    "chain": "GUUCCGUUGGAGUAAUGGUAACGCGUCUCCCUCCUAAGGAGAAGACUGCGGGUUCGAGUCCCGUACGUAACG [C11A G68U]",
    "result": 0.54
  },
  {
    "chain": "GUUACGUUGGGGUAAUGGUAACGCGUCUCCCUCUUAAGGAGAAGACUGCGGGUUCGAGUCCCGUACGGAACG [C4A C11G C34U]",
    "result": "≤ 0.5"
  },
  {
    "chain": "GUUCCGUUGGCGUAAUGGUAACGUGUCUCCCUCCUUAGGAGAAGAGUGCGGGUUCGAGUCCAGUACGGCACG [C24U A36U C46G C62A A69C]",
    "result": "≤ 0.5"
  },
  {
    "chain": "GUUCCGUUGGCGUAAUGGUAACGGGUUUCCCUUCUAAGGAGAAGACUGCCGGUUCGAGUCCCGUAUGGAACG [C24G C27U C33U G50C C66U]",
    "result": "≤ 0.5"
  },
  {
    "chain": "GUUCCGUUGGCGUAAUGGUAACGCGUCUCCCUCCUAAGGCGAAGACUGCGGGUUCGAGUACCGUAUGGAACG [A40C C60A C66U]",
    "result": "≤ 0.5"
  },
  {
    "chain": "GAUCCGUUGGCGUAAUGGUAACGCGUCUCCCUCCUAAGGAGAAGACUGCGGGUUCGAGUUCAGUACGGAACG [U2A C60U C62A]",
    "result": "≤ 0.5"
  },
  {
    "chain": "GUUCCGUUGGCGUAAUGGUACCGCCGCUCCCUCCUAAGGAGAAGACUGCUGGUUCAAGACCCGUACGGACCG [A21C G25C U26G G50U G56A U59A A70C]",
    "result": 0.541
  },
  {
    "chain": "GUUGCGUUGGCGUAAUGGUAACGCGUCUCCCUCCUAAGGAGAAGACUGCGGGUUCGAGCCCCGUACGGAACG [C4G U59C]",
    "result": 0.771
  },
  {
    "chain": "GUUCCGUUGGCGUAAUGGUAGCGCGUCUCCCUCCUAAGGAGAUGACUGUGGGCUCGAGUCGCGUACGGAACG [A21G A43U C49U U53C C61G]",
    "result": "≤ 0.5"
  },
  {
    "chain": "GUUCCGUUGGCGUUAUGGUAACCCGUCUGCCUCCUAAGGAGAAGACUGCGAGUUCCAGUCCCGUACGGAACG [A14U G23C C29G G51A G56C]",
    "result": "≤ 0.5"
  },
  {
    "chain": "GUUCCGUUGGCGUAAUGGUAACGCGUCUACGUCCUAAGGAGAAGACUGCGGGUUCGAGUCCCGUACGGAACG [C29A C31G]",
    "result": 0.677
  },
  {
    "chain": "GUUCCGUUGACGUAAUGGUAACGCGUCUCCCUCCUAAGGAGCCGACUGCGGGUUCGAGUCCCGUAAGGAACG [G10A A42C A43C C66A]",
    "result": "≤ 0.5"
  }
]

# credit: the RNAGym collection of RNA variant scans (doi:10.1126/science.aae0568)
